target_desc: UniProt:P57059
Sequence (P57059 whole entry, looked up): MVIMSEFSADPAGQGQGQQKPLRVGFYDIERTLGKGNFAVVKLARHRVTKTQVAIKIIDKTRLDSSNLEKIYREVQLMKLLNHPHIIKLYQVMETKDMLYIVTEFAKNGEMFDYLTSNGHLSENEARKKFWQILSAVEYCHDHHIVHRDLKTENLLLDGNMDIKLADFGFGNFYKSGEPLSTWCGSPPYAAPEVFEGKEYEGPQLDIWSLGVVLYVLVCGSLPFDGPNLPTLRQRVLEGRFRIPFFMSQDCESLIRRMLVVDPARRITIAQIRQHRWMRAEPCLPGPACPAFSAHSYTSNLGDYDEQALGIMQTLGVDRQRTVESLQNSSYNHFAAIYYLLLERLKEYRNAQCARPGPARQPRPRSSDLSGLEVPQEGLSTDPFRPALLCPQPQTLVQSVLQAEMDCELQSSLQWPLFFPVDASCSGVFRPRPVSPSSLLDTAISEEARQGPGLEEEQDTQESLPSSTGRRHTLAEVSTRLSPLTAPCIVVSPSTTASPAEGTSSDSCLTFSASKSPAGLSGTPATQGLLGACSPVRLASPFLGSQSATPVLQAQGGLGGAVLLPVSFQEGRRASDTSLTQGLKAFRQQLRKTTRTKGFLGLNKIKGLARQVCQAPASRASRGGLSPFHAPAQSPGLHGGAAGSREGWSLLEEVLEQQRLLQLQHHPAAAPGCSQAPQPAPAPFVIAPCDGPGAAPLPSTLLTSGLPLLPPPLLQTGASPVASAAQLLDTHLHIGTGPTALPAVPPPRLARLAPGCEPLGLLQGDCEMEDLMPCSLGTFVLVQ
procedure_details: KINOMEscan competition binding
condition_context: compound 10.0 µM
measurement_name: kinase still bound, per cent of control (%)
Please reply with the bare figure in % and do not write the unit itself.

Past entries and their recorded results:
# input Retrieve kinase still bound, per cent of control measured for CNC(=O)Nc1ccc(-c2nc(N3CC4CCC(C3)O4)c3cnn(C4CCC5(CC4)OCCO5)c3n2)cc1 and print it.
# output 86

# input Retrieve kinase still bound, per cent of control measured for CCCS(=O)(=O)Nc1ccc(F)c(C(=O)c2c[nH]c3ncc(Cl)cc23)c1F and print it.
# output 2.6

# input Retrieve kinase still bound, per cent of control measured for C=CC(=O)Nc1ccc(C(=O)c2sc(Nc3ccc(N4CCN(C)CC4)cc3OC)nc2N)cc1 and print it.
# output 83

# input Retrieve kinase still bound, per cent of control measured for CCN1CCN(Cc2ccc(NC(=O)c3ccc(C)c(/C=C/c4cnc5[nH]ccc5c4OC)c3)cc2C(F)(F)F)CC1 and print it.
# output 0.9

# input Retrieve kinase still bound, per cent of control measured for CCOc1cc(N2CCC(O)CC2)ccc1Nc1ncc2c(n1)N(C)c1ccccc1C(=O)N2C and print it.
# output 100

# input Retrieve kinase still bound, per cent of control measured for CC(=O)c1c(C)c2cnc(Nc3ccc(N4CCNCC4)cn3)nc2n(C2CCCC2)c1=O and print it.
# output 90

# input Retrieve kinase still bound, per cent of control measured for COc1ccc(N(C(=O)Oc2cc(C(=O)Nc3cccc(C(F)(F)F)c3)ccc2C)c2ccnc(Nc3ccc(N4CCN(C)CC4)cc3)n2)c(OC)c1 and print it.
# output 0.1

# input Retrieve kinase still bound, per cent of control measured for N#C/C(=C1/Nc2ccccc2S1)c1ccnc(NCCc2cccnc2)n1 and print it.
# output 100

# input Retrieve kinase still bound, per cent of control measured for CCc1nc(-c2cccc(C)c2)c(-c2ccnc(NC(=O)c3ccccc3)c2)s1 and print it.
# output 100

# input Retrieve kinase still bound, per cent of control measured for COc1cc(C)c(Sc2cnc(NC(=O)c3ccc(CNC(C)C(C)C)cc3)s2)cc1C(=O)N1CCN(C(C)=O)CC1 (stereo not drawn) and print it.
# output 100

Proceed to the following item.
# input Retrieve kinase still bound, per cent of control measured for Cc1cn(-c2cc(C(=O)Nc3ccc(C)c(NC(=O)c4ccno4)c3)cc(C(F)(F)F)c2)cn1 and print it.
# output 100

Source listed as the kinase profiling compilation of Christmann-Franck et al. (2016).
